Below: a set of entries, each annotated with reported GI50.
Test system: IGROV-1
Assay Method Text: NCI tumour cell line growth inhibition, 48 h
Calls of active or inactive are those of the source. No stated cut-off is given here; in the data, active = GI50 up to about 1.1 µM and inactive = higher.

The examples below pair each entry with its known result.
Compound	GI50
CCOC(=O)c1c(C)n(-c2ccc(Cl)cc2)c2c1cc(O)c1[nH]c3c(c12)CCCC3	44.4 µM (inactive)
CC(=O)N(O)Cc1ccccc1	> 100 µM (inactive)
COCCOC(=O)C1=C(O)c2ccccc2S(=O)(=O)N1C	> 100 µM (inactive)
N#C[BH2-][n+]1ccc(C(=O)NNC(c2ccccc2)C(F)(F)F)cc1 (configuration not stated)	> 100 µM (inactive)
Cc1oc2c(c1C(=O)c1ccccc1)C(=O)c1ccccc1C2=O	4.99 µM (inactive)
NC(=S)NS(=O)(=O)c1ccc(F)cc1	> 100 µM (inactive)

Attention now shifts to the item below.
Form: Entry = CCc1n[nH]c(=O)n1NC(=O)CCCC(=O)O | System = IGROV-1 | GI50 = ____
> 100 µM (inactive)
